Data provenance: the supplement of paper PMC6555819

# System: RARb:RXRa (NR concentration 270 nM, RXRa partner concentration 90 nM)
# TEST DESCRIPTION: PBM binding z-score (relative to random genomic background probes); higher = stronger binding; sequences stand for … in GC…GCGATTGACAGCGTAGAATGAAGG
Reported PBM binding z-score is given for each of the following sequences.
# answer = number (no unit)

These solved cases illustrate the format of a correct answer.
>>> experimental_value("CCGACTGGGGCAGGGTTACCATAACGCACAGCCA")
0.803
>>> experimental_value("AGAATGAGGTTAAGATCAGTGAAACAGAATACAT")
1.74
>>> experimental_value("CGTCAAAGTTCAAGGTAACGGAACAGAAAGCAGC")
5.07

Now let's try a different one.
Query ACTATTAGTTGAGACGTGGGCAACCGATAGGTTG yields PBM binding z-score of -0.226

====

# Test system: THRa:RXRa (NR concentration 90 nM, RXRa partner concentration 90 nM)
# TEST DESCRIPTION: PBM binding z-score (relative to random genomic background probes); higher = stronger binding; sequences stand for … in GC…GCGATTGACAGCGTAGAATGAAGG
The label depends only on PBM binding z-score: True if it is at least 1, False if it is smaller.

These solved cases illustrate the format of a correct answer.
>>> class_name("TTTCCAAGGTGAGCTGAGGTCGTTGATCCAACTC")
"True"
>>> class_name("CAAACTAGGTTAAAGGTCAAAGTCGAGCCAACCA")
"True"
>>> class_name("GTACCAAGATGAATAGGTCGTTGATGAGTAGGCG")
"False"
>>> class_name("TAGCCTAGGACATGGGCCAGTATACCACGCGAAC")
"False"

Check the entry TTACCCAGGTGAGCTGAGGTCGTTGATCCAACTC : does PBM binding z-score equal or exceed 1? True

Check the entry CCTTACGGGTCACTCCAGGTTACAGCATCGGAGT : does PBM binding z-score equal or exceed 1? True

Check the entry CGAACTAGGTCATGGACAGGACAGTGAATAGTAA : does PBM binding z-score equal or exceed 1? True

Check the entry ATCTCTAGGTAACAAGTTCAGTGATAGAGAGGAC : does PBM binding z-score equal or exceed 1? True

Check the entry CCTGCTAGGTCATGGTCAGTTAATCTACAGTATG : does PBM binding z-score equal or exceed 1? True

Check the entry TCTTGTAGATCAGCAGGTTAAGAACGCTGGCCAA : does PBM binding z-score equal or exceed 1? False

Check the entry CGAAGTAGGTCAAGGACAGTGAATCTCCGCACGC : does PBM binding z-score equal or exceed 1? True

Check the entry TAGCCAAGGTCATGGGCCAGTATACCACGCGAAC : does PBM binding z-score equal or exceed 1? True

====

# Test system: PPARg homodimer (NR concentration 180 nM)
# TEST DESCRIPTION: PBM binding z-score (relative to random genomic background probes); higher = stronger binding; sequences stand for … in GC…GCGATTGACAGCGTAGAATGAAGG
Reported PBM binding z-score is given for each of the following sequences.
# answer = number (no unit)

These solved cases illustrate the format of a correct answer.
>>> experimental_value("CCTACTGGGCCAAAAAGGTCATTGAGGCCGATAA")
2.79
>>> experimental_value("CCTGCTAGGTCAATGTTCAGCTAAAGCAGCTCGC")
1.39
>>> experimental_value("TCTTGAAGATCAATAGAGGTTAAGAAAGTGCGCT")
-0.0803
>>> experimental_value("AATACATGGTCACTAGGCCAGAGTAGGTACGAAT")
0.338
>>> experimental_value("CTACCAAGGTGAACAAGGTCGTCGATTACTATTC")
1.09

Query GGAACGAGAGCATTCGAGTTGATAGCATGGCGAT yields PBM binding z-score of -1.19

Query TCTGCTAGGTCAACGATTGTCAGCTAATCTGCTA yields PBM binding z-score of 0.734

Query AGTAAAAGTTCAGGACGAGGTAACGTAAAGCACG yields PBM binding z-score of 1.74

====

# System: PPARg homodimer (NR concentration 180 nM)
# TEST DESCRIPTION: PBM binding z-score (relative to random genomic background probes); higher = stronger binding; sequences stand for … in GC…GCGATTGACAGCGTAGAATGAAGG
Reported PBM binding z-score is given for each of the following sequences.
# answer = number (no unit)

>>> experimental_value("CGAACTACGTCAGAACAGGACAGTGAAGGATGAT")
0.0908
>>> experimental_value("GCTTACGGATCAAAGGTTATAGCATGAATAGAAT")
0.616

Query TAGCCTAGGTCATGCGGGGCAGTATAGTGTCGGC yields PBM binding z-score of 0.993

Query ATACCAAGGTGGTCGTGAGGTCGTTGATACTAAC yields PBM binding z-score of 0.722

Query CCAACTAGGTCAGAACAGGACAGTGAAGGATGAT yields PBM binding z-score of 1.73

Query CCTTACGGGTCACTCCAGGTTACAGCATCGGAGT yields PBM binding z-score of 1.91

====

# Test system: RARg homodimer (NR concentration 270 nM)
# TEST DESCRIPTION: PBM binding z-score (relative to random genomic background probes); higher = stronger binding; sequences stand for … in GC…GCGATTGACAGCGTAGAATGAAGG
The label depends only on PBM binding z-score: 1 if it is at least 1, 0 if it is smaller.

These solved cases illustrate the format of a correct answer.
>>> class_name("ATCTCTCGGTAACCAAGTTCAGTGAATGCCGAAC")
0
>>> class_name("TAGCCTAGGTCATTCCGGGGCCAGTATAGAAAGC")
1
>>> class_name("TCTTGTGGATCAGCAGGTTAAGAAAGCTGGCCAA")
0
>>> class_name("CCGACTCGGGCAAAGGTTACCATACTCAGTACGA")
1
>>> class_name("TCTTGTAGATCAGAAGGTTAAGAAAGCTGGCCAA")
0
>>> class_name("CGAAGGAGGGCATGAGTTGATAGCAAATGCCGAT")
1
>>> class_name("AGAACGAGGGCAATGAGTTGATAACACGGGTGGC")
1
>>> class_name("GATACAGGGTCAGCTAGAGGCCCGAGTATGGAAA")
1

Check the entry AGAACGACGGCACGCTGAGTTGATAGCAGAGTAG : does PBM binding z-score equal or exceed 1? 0

Check the entry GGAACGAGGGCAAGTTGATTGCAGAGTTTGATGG : does PBM binding z-score equal or exceed 1? 1

Check the entry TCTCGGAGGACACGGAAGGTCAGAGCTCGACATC : does PBM binding z-score equal or exceed 1? 1

====

Reported PBM binding z-score is given for each of the following sequences.
# Tested on: RARb homodimer (NR concentration 270 nM)
# TEST DESCRIPTION: PBM binding z-score (relative to random genomic background probes); higher = stronger binding; sequences stand for … in GC…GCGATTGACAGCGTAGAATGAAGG

>>> experimental_value("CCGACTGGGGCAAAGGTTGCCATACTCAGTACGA")
0.697

Query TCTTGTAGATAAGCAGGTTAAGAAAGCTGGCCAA yields PBM binding z-score of -0.166

Query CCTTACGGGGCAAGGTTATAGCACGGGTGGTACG yields PBM binding z-score of 0.994

Query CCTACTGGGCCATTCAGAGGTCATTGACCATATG yields PBM binding z-score of 4.16

Query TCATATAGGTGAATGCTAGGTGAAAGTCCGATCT yields PBM binding z-score of 0.945

Query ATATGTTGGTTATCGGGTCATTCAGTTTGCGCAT yields PBM binding z-score of 2.89

Query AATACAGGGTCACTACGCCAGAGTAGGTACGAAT yields PBM binding z-score of 3.19

====

# Tested on: RARa:RXR (NR concentration 270 nM, RXRa partner concentration 90 nM)
# TEST DESCRIPTION: PBM binding z-score (relative to random genomic background probes); higher = stronger binding; sequences stand for … in GC…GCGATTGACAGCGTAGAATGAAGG
MEASURE NAME: PBM binding z-score

>>> experimental_value("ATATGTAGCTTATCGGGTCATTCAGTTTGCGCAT")
2.8
>>> experimental_value("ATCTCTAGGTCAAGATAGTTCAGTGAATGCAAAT")
3.29
>>> experimental_value("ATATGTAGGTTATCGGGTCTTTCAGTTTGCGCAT")
1.07
>>> experimental_value("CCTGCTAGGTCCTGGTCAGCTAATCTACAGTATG")
-0.0873
>>> experimental_value("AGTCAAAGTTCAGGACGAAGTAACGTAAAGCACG")
1.93

Now let's try a different one.
PBM binding z-score of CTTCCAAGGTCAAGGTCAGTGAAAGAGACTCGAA , assay on RARa:RXR (NR concentration 270 nM, RXRa partner concentration 90 nM), is 5.07
